# assay_name: Dynamic solubility test (water, SGF, FaSSIF, FeSSIF; 37° C.; 1, 4 and 24 hours)
# Format: physicochemical
# test_conditions: FaSSIF, 37° C., 1 hr
measurement_name: pH (of filtrate)

Below, each entry is followed by its recorded pH (of filtrate) result.
# compound, meas_value
measured = [
    ("CCCCCCCC(=O)N[C@H](CN1CCCC1)[C@H](O)c1ccc2c(c1)OCCO2 [Free crystalline form A, reference compound]", 7.31),
    ("CCCCCCCC(=O)N[C@H](CN1CCCC1)[C@H](O)c1ccc2c(c1)OCCO2.CCCCCCCC(=O)N[C@H](CN1CCCC1)[C@H](O)c1ccc2c(c1)OCCO2.O.O.O=S(=O)(O)c1cccc2c(S(=O)(=O)O)cccc12", 6.48),
    ("CCCCCCCC(=O)N[C@H](CN1CCCC1)[C@H](O)c1ccc2c(c1)OCCO2.CCCCCCCC(=O)N[C@H](CN1CCCC1)[C@H](O)c1ccc2c(c1)OCCO2.O=S(=O)(O)c1cccc2c(S(=O)(=O)O)cccc12", 6.52),
]

In the following, a different compound is considered.
Give me measured pH (of filtrate), please, for this compound: CCCCCCCC(=O)N[C@H](CN1CCCC1)[C@H](O)c1ccc2c(c1)OCCO2.CCCCCCCC(=O)N[C@H](CN1CCCC1)[C@H](O)c1ccc2c(c1)OCCO2.O=C(O)C(=O)O [Crystalline form A of oxalate]
6.52

The values you see were collected from patent US20250002453A1.
